% Phosphatase Activity (compared to DMSO) PRL-2 by entry:
biological target: recombinant PRL-2 (Homo sapiens); construct: 6xHis (N, cleaved yes); made in house; host or cells: E. coli One Shot BL21 Star; assay: In vitro phosphatase assay (DiFMUP hydrolysis), PRL-2; type: biochemical; details: FDA-approved drug screen; compared to DMSO;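 also: PRL-2 activity read as DiFMUP hydrolysis after 20 min at room temperature with drug, enzyme first pre-reduced at 4 °C for 20 min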
Sequence (Q12974 whole entry): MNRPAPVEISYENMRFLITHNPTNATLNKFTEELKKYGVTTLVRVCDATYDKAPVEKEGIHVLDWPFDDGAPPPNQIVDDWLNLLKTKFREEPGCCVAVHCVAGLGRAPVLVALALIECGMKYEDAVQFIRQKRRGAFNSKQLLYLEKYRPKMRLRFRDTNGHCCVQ
Structures can show the parent of a compound that is named as a salt.

compound="CCCCCCCCc1ccc(CCC(N)(CO)CO)cc1.Cl [Fingolimod (FTY720) HCl]" reading=95%

// Input: CCN(CC)C(=O)N1CCN(C)CC1.O=C(O)CC(O)(CC(=O)O)C(=O)O [Diethylcarbamazine (citrate)] . Output its % Phosphatase Activity (compared to DMSO) PRL-2 only.
101%

// Input: Cc1ccccc1N1C(=O)c2cc(S(N)(=O)=O)c(Cl)cc2NC1C (stereo not drawn) . Output its % Phosphatase Activity (compared to DMSO) PRL-2 only.
163%

// Input: C/C(=C\C(=O)OCCCCCCCCC(=O)O)C[C@@H]1OC[C@H](C[C@@H]2O[C@H]2[C@@H](C)[C@H](C)O)[C@@H](O)[C@H]1O . Output its % Phosphatase Activity (compared to DMSO) PRL-2 only.
97%

// Input: CCOC(=O)[C@H](CCc1ccccc1)N[C@@H](C)C(=O)N1C(=O)N(C)C[C@H]1C(=O)O [Imidapril HCl] . Output its % Phosphatase Activity (compared to DMSO) PRL-2 only.
95%

// Input: O=C(NC1CCN(CCCCC2(C(=O)NCC(F)(F)F)c3ccccc3-c3ccccc32)CC1)c1ccccc1-c1ccc(C(F)(F)F)cc1 [Lomitapide] . Output its % Phosphatase Activity (compared to DMSO) PRL-2 only.
118%

// Input: C[C@](N)(Cc1ccc(O)c(O)c1)C(=O)O . Output its % Phosphatase Activity (compared to DMSO) PRL-2 only.
95%

// Input: COc1c(C)c2c(c(O)c1C/C=C(\C)CCC(=O)O)C(=O)OC2 . Output its % Phosphatase Activity (compared to DMSO) PRL-2 only.
100%

// Input: CC(C)c1cc(C(=O)N2Cc3ccc(CN4CCN(C)CC4)cc3C2)c(O)cc1O . Output its % Phosphatase Activity (compared to DMSO) PRL-2 only.
100%

// Input: Nc1nc(NC2CC2)c2ncn([C@H]3C=C[C@@H](CO)C3)c2n1 [Abacavir sulfate] . Output its % Phosphatase Activity (compared to DMSO) PRL-2 only.
85%

// Input: O=C(c1ccc(OCCN2CCCCC2)cc1)c1c(-c2ccc(O)cc2)sc2cc(O)ccc12 [Raloxifene HCl] . Output its % Phosphatase Activity (compared to DMSO) PRL-2 only.
96%

// data source = paper PMC8119466
